Tested on: SNB-75
Assay: NCI tumour cell line growth inhibition, 48 h
Calls of active or inactive are those of the source. Rule as the data show it: active = GI50 up to about 1.1 µM and inactive = higher.
Lab note: assign the record to one of active, inactive

Consider the worked cases shown below.
{"COMPOUND": "COC(=O)C1=C(C(=O)OC)C2(C)CCC(=O)C1O2 (stereo not given)", "ASSAYED_SYSTEM": "SNB-75", "ASSIGNED_CATEGORY": "inactive"}
{"COMPOUND": "CC(C)c1ccc2c(c1)/C(=C1/Nc3ccccc3C1=O)C(=O)N2", "ASSAYED_SYSTEM": "SNB-75", "ASSIGNED_CATEGORY": "inactive"}

Request: Please state the recorded outcome for this compound: `Cc1cc2[nH]c(=NS(=O)(=O)c3cc(C)c(Cl)cc3S)[nH]c2cc1C`
Response: inactive

Request: Can you check OCCN=C1c2ccccc2C2C(c3ccccc31)C1c3ccccc3C(=NCCO)c3ccccc3C21 (stereo not given) next?
Response: inactive

Request: Also COc1ccc2c(c1)C(O)(C(F)(F)F)c1cc(C(=O)C(F)(F)F)c3ccccc3c1N2 (stereo not given) , if possible.
Response: inactive
